Biological target: human recombinant HDAC6 (Homo sapiens, UniProt Q9UBN7)
Construct: purchased Calbiochem Inc. 382180
Sequence (Q9UBN7 1-1215): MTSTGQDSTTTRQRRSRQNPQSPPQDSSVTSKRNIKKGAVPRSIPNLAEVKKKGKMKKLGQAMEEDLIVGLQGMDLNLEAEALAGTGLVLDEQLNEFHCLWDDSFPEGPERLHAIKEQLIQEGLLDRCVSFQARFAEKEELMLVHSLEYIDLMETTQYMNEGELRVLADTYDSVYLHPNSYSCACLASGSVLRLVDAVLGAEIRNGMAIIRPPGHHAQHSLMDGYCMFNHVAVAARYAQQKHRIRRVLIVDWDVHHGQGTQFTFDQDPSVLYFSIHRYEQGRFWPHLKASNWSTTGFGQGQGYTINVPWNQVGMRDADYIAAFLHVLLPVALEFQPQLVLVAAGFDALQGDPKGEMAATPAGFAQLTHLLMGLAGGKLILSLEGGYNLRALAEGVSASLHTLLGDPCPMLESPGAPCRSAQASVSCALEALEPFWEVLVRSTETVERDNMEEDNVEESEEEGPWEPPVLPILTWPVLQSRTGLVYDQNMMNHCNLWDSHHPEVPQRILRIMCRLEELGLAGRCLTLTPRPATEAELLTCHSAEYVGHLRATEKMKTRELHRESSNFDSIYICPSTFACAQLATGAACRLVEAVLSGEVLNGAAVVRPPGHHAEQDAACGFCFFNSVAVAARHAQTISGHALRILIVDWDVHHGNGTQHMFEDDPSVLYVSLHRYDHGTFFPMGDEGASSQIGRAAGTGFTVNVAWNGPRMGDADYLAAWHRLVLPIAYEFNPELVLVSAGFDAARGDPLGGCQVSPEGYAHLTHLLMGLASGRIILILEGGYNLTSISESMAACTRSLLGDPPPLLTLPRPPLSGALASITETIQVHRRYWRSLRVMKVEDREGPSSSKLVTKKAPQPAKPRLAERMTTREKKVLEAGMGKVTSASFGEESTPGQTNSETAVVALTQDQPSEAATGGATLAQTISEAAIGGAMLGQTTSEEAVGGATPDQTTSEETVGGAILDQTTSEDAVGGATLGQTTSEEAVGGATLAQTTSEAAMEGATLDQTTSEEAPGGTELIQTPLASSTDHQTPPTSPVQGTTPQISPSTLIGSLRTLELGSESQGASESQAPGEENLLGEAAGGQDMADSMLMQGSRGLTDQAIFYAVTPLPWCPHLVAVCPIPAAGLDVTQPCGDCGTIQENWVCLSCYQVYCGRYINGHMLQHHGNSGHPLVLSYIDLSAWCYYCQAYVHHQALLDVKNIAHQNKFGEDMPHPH
Test: In vitro HDAC enzyme activity inhibition assay, HDAC6 (HDAC Fluorimetric Drug Discovery Kit)
Assay type: biochemical
Settings: human recombinant HDAC6, same protocol as the HDAC1 test
Kindly supply the reported pIC50 values for the records listed here.
Give bare numbers, as −log10 of the molar value.

Here is how some compounds turned out for pIC50.
• CS(=O)(=O)N1CCC(C(=O)N(Cc2cn3ccc(-c4nnc(C(F)F)o4)cc3n2)c2cccc(F)c2)CC1 = 6.86
• O=C(C1CCN(C2CCC(F)(F)CC2)CC1)N(Cc1cn2ccc(-c3nnc(C(F)F)o3)cc2n1)c1ccccc1 = 6.39
• O=C(CO)N1CCN(C(=O)N(Cc2cn3ccc(-c4nnc(C(F)F)o4)cc3n2)c2cccc(F)c2)CC1 = 6.63

State the recorded pIC50 for every item in the following list.
1. CC(CO)N1CCN(C(=O)N(Cc2cn3ccc(-c4nnc(C(F)F)o4)cc3n2)c2ccccc2)CC1 (stereo not drawn)
2. O=C(C1CN(C2CCOCC2)C1)N(Cc1cn2ccc(-c3nnc(C(F)F)o3)cc2n1)c1cccc(F)c1
3. FC(F)c1nnc(-c2ccn3cc(Cc4ccccc4)nc3c2)o1
4. CC(CO)N1CCC(C(=O)N(Cc2cn3ccc(-c4nnc(C(F)F)o4)cc3n2)c2cccc(F)c2)CC1 (stereo not drawn)
5. O=C(N1CCN(c2ccccn2)CC1)N(Cc1cn2ccc(-c3nnc(C(F)F)o3)cc2n1)c1cccc(F)c1

1. 6.53
2. 6.72
3. 7.10
4. 6.69
5. 6.33

Where do the numbers come from? From patent US12522601B2.
